assay: Inhibition of Plasmodium vivax HGPRT by spectrophotometric analysis in presence of 52 uM PPi
pKi: −log10 of the molar value.
reportedProperty: pKi

INSERT INTO results (compound, reportedproperty, recordedmeasurement) VALUES
  ('O=c1[nH]cnc2c1ncn2CC(O)COCP(=O)(O)O (configuration not stated)', 'pKi', 6.05),
  ('Nc1nc2c(ncn2CC(O)COCP(=O)(O)O)c(=O)[nH]1 (configuration not stated)', 'pKi', 5.55);

Where do these numbers come from? They come from ChEMBL document CHEMBL1933062.
